B1: Unconventional myosin-Ie, residues 1051 to 1108; numbered along this chain, Q12965 (parent)
chain: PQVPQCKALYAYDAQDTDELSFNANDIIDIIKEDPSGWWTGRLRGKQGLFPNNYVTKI

Variants of: B1
Assay: abundance fitness (aPCA) (normalised: wild type 0, dead -1); higher = more abundant; growth selection in yeast, the domain comes from the species named
Details: Homo sapiens
Consider the following variants; for each one, report its abundance fitness.
One number for each entry.

Example results:
{"mutations": "W39A", "abundance fitness": -0.374}
{"mutations": "W39K", "abundance fitness": -0.677}
{"mutations": "I31F", "abundance fitness": -0.462}
{"mutations": "D18V", "abundance fitness": -0.257}
{"mutations": "P1Q", "abundance fitness": 0.05}
{"mutations": "Q2T", "abundance fitness": -0.155}

// for each variant below, give its abundance fitness
1. D18Q
2. A8S

1: -0.152; 2: -0.714

// for each variant below, give its abundance fitness
1. A11M
2. G48D
3. K32R
4. V55I
5. T17R
6. K46V
7. D26C

[-0.149, -0.885, -0.042, -0.27, -0.111, -0.051, -0.957]
